tested on: pyruvate kinase (Bacillus stearothermophilus); assay: Pyruvate Kinase; conditions: purified pyruvate kinase, luminescence ATP production; ribose 5-phosphate activator present at AC10; further: potency means the concentration at half of the fitted maximal effect
In all, about 51,000 compounds went through this assay and about 600 (1.2%) were called active. Another 2% or so got no clear call; they are omitted. No stated cut-off is given here; in the data, active means potency below about 11 µM; inconclusive means mostly about 12 µM to 25 µM; inactive means weaker than that;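 the screen sought inhibitors and activators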. The entries come from a sample that favours actives as a whole.
Use one of these outcomes when replying: active, inactive

Cc1ccc(Cc2nc(-c3cccc(C)c3)no2)cc1 : inactive
O=C1Nc2c(Br)cc(Br)cc2C1(O)N1CCOCC1 (stereo unspecified) : active
Cn1c(=O)c(=O)n(C)c2cc(S(=O)(=O)NCCc3ccccc3)ccc21 : inactive
O=C(c1ccccc1)N1CCN(C(=O)N2CCCCC2)CC1 : inactive
COc1ccc2oc(=O)c(C(=O)O)cc2c1 : inactive

API: the following record is the query input.
// query Which result was noted for this compound in the test: C=CCn1c(C)cc(C(=O)CN2C(=O)c3ccccc3C2=O)c1C
// result active

* * *

tested on: pyruvate kinase (Bacillus stearothermophilus); assay: Pyruvate Kinase; details: purified pyruvate kinase, luminescence ATP production; ribose 5-phosphate activator present at AC10; further: potency means the concentration at half of the fitted maximal effect
The campaign covered roughly 51,000 compounds. About 600 (1.2%) were called active. Roughly 2% stayed inconclusive and do not appear here. No stated cut-off is given here; in the data, active means potency below about 11 µM; inconclusive means mostly about 12 µM to 25 µM; inactive means weaker than that;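 the screen sought inhibitors and activators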. What follows is part of a selection rich in actives, with near analogues and random picks from the rest.
Tick one outcome: t = active, f = inactive

Reference set, count: 5
CCCCCCn1c(CN2CCCCC2)nc2c1c(=O)n(C)c(=O)n2C : f
O=C(Nc1ccc(Oc2ccccc2)cc1)c1ccco1 : f
C=CCc1cccc2cc(C(=O)N3CCN(C(=O)OCC)CC3)c(=O)oc12 : f
CCc1ccc2oc(-c3ccc(N)cc3)nc2c1 : t
CCN(CC)c1ccc2oc(=O)c(C)nc2c1 : f

// query Which result was noted for this compound in the test: Cc1ccc2c(C(=O)CN3CCCC3)c(C)[nH]c2c1
// result f

// query Check the results log: what was the call for CN(C)c1nc(N)nc(CSc2nnnn2-c2cccc3ccccc23)n1 ?
// result t

// query # fetch the recorded call for O=C(OC1CCOC1=O)c1ccc(-c2nc3ccccc3s2)s1 (centres undefined) here
// result t

// query // return assay outcome for CN(C(=O)CSc1nnnn1-c1ccccc1)C1CCCCC1
// result f

// query Called result for O=c1[nH]c(=O)n(Cc2ccco2)c2c1C(C(F)(F)F)(C(F)(F)F)N=C(c1ccco1)N2
// result f

// query Status in this test for Cc1cc(C)c2nc(SCCC#N)nc(C)c2c1 ?
// result f

// query How was Cn1nnnc1SCc1cc(=O)[nH]c2ccccc12 classified in this test?
// result f

// query // param item: Brc1cccc(-c2nnc3n2CCC3)c1 ; yields the recorded call
// result f

* * *

system: pyruvate kinase (Bacillus stearothermophilus); test: Pyruvate Kinase; details: purified pyruvate kinase, luminescence ATP production; ribose 5-phosphate activator present at AC10; further: potency means the concentration at half of the fitted maximal effect
The whole screen tested about 51,000 compounds, of which about 600 (1.2%) were called active. Roughly 2% stayed inconclusive and do not appear here. Rule as the data show it: active = potency below about 11 µM; inconclusive = mostly about 12 µM to 25 µM; inactive = weaker than that;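 the screen sought inhibitors and activators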. Many of the other results were omitted from the sample, so actives are more common in it than they were.
Select the matching outcome among True = active, False = inactive

CCc1cc2c(=O)c(-c3ccon3)c(N)oc2cc1OC : True
COC(=O)Cc1nc2ccccc2[nH]1 : False
Cc1c(C(=O)CN2CCOCC2)[nH]c2ccccc12 : False
Cc1ccc(C(=O)NCC2CCCO2)o1 (configuration not stated) : False
CSc1nc(O)c(Cc2ccccc2)c(=O)[nH]1 : False

// query // param item: CCCc1cc(=O)oc2c(C)c(O)c(CN3CCCCC3)cc12 ; yields the recorded call
// result False

// query Could you check what this test reported for CCn1c(SCC(=O)Nc2nc3ccc(OC)cc3s2)nnc1-c1ccoc1C ?
// result False

// query Lab log entry: Cc1ccsc1C(=O)OCC(=O)c1cc(C)n(CC2CCCO2)c1C (configuration not stated) — outcome as called in the assay?
// result True

// query Please let me know the test result on file for COC(=O)c1ccc2c(=O)n(CC3CCCO3)c(=S)[nH]c2c1 (configuration not stated) .
// result False

// query Please indicate how the test categorized CCc1nnc(NC(=O)c2nc3nccc(C)n3n2)s1 .
// result False

// query What outcome does the record of this test show for CC(C)(C)NC(=O)NC(=O)COC(=O)Cn1c(C(F)(F)F)nc2ccccc21 ?
// result False

// query Give the logged outcome of this assay for the following compound: Cc1nnc(SCC(N)=O)n1CC1CCCO1 (configuration not stated)
// result False
